Each record here notes measured Regular Beta Sheet.
Target: BSA (Bos taurus, UniProt P02769)
Construct: purchased Millipore Sigma-Aldrich
Sequence (P02769 25-607): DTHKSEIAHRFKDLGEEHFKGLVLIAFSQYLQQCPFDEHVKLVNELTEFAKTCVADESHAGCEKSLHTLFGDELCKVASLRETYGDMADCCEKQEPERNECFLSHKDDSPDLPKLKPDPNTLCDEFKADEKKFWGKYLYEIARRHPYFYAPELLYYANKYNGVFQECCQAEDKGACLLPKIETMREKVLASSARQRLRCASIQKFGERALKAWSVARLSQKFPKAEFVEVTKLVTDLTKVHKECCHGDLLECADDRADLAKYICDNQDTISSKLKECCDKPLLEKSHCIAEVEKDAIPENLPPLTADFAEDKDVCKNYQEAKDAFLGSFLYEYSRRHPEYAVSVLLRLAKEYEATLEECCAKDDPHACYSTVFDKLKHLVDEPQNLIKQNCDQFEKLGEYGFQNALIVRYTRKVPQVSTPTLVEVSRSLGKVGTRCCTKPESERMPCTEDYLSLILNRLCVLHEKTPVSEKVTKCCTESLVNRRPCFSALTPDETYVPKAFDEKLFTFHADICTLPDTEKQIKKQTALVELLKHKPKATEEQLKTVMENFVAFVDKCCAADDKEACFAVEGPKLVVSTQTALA
Assay: Far-UV CD secondary structure of BSA (CONTIN-LL deconvolution)
Type: physicochemical, bovine
Settings: 1.0 mg/mL BSA, 200 mM component, 25 °C

Record excerpt, results attached:
> print(dat)
                                   compound            endpoint  result
1  CCCCn1cc[n+](C)c1.O=S(=O)([O-])C(F)(F)F [[C4C1Im][CF3SO3]]  Regular Beta Sheet   0.000
2  CCn1cc[n+](C)c1.O=S(=O)([O-])C(F)(F)C(F)(F)C(F)(F)C(F)(F)F  Regular Beta Sheet   0.014
3  C[N+](C)(C)CCO.C[N+](C)(C)CCO.O=P([O-])(O)O.O=P([O-])(O)O [[N1112(OH)][H2PO4]]  Regular Beta Sheet   0.021
4  C[N+](C)(C)CCO.O=S(=O)([O-])C(F)(F)C(F)(F)C(F)(F)C(F)(F)F [[N1112(OH)][C4F9SO3]]  Regular Beta Sheet   0.017

Requested field: Regular Beta Sheet. Item: `OC[C@H]1O[C@@](CO)(O[C@H]2O[C@H](CO)[C@@H](O)[C@H](O)[C@H]2O)[C@@H](O)[C@@H]1O`
0.000

* * *

Below is a list of entries, each paired with its recorded Distorted Alpha Helix value.
Target: BSA (Bos taurus, UniProt P02769)
Construct: purchased Millipore Sigma-Aldrich
Experiment: Far-UV CD secondary structure of BSA (CONTIN-LL deconvolution)
Type: physicochemical, bovine
Settings: 1.0 mg/mL BSA, 0.1 mM component, 25 °C
Form: value (number only, do not type unit).

Some entries whose results are on file:
> print(dat)
                                   compound  readout.number
1  CCCCn1cc[n+](C)c1.O=S(=O)([O-])C(F)(F)F [[C4C1Im][CF3SO3]]           0.207
2  C[N+](C)(C)CCO.C[N+](C)(C)CCO.O=P([O-])(O)O.O=P([O-])(O)O [[N1112(OH)][H2PO4]]           0.204
3  OC[C@H]1O[C@@](CO)(O[C@H]2O[C@H](CO)[C@@H](O)[C@H](O)[C@H]2O)[C@@H](O)[C@@H]1O           0.205
4  CCn1cc[n+](C)c1.O=S(=O)([O-])C(F)(F)C(F)(F)C(F)(F)C(F)(F)F           0.206

Which measured Distorted Alpha Helix value corresponds to C[N+](C)(C)CCO.O=S(=O)([O-])C(F)(F)C(F)(F)C(F)(F)C(F)(F)F [[N1112(OH)][C4F9SO3]] ?
0.214

* * *

Molecular target: BSA (Bos taurus)
Construct: purchased Millipore Sigma-Aldrich
Test: Far-UV CD secondary structure of BSA (CONTIN-LL deconvolution)
Assay type: physicochemical, bovine
Settings: 1.0 mg/mL BSA, 1 mM component, 25 °C
Entries and their Regular Alpha Helix
// response body must contain only the number

> print(dat)
                                   compound  readout.number
1  C[N+](C)(C)CCO.C[N+](C)(C)CCO.O=P([O-])(O)O.O=P([O-])(O)O [[N1112(OH)][H2PO4]]           0.393
2  C[N+](C)(C)CCO.O=S(=O)([O-])C(F)(F)C(F)(F)C(F)(F)C(F)(F)F [[N1112(OH)][C4F9SO3]]           0.428
3  CCCCn1cc[n+](C)c1.O=S(=O)([O-])C(F)(F)F [[C4C1Im][CF3SO3]]           0.419
4  CCn1cc[n+](C)c1.O=S(=O)([O-])C(F)(F)C(F)(F)C(F)(F)C(F)(F)F           0.401

// below: Regular Alpha Helix requested for another compound
Record request: Regular Alpha Helix value, item OC[C@H]1O[C@@](CO)(O[C@H]2O[C@H](CO)[C@@H](O)[C@H](O)[C@H]2O)[C@@H](O)[C@@H]1O [Sucrose, sucrose]
0.428

* * *

Target: BSA (Bos taurus)
Construct: purchased Millipore Sigma-Aldrich
Assay: Far-UV CD secondary structure of BSA (CONTIN-LL deconvolution)
Type: physicochemical, bovine
Set-up: unit not given here
Settings: 1.0 mg/mL BSA, 200 mM component, 25 °C
Short version: Unordered at least 0.2 is 1 (yes), less is 0 (no).

> print(dat)
                                   molecule  assigned.class
1  CCn1cc[n+](C)c1.O=S(=O)([O-])C(F)(F)C(F)(F)C(F)(F)C(F)(F)F         1 (yes)
2  C[N+](C)(C)CCO.C[N+](C)(C)CCO.O=P([O-])(O)O.O=P([O-])(O)O [[N1112(OH)][H2PO4]]         1 (yes)
3  OC[C@H]1O[C@@](CO)(O[C@H]2O[C@H](CO)[C@@H](O)[C@H](O)[C@H]2O)[C@@H](O)[C@@H]1O          0 (no)

Record C[N+](C)(C)CCO.O=S(=O)([O-])C(F)(F)C(F)(F)C(F)(F)C(F)(F)F [[N1112(OH)][C4F9SO3]] ; criterion: Unordered no lower than 0.2. Met?
0 (no)

* * *

Catalogue of ΔHcal/ΔHvH readings, one per entry.
Target: BSA (Bos taurus, UniProt P02769)
Construct: purchased Millipore Sigma-Aldrich
Assay: DSC thermal unfolding of BSA in water and aqueous solutions of ABS phase-forming components
Type: physicochemical, bovine
Conditions: 1.0 mg/mL BSA, 0.1 mM component
Please give only the number in your answer, with no unit.

In the examples that follow, each entry is paired with its recorded ΔHcal/ΔHvH.
> print(dat)
                                   compound                  target.or.system  readout.number
1  CCCCn1cc[n+](C)c1.O=S(=O)([O-])C(F)(F)F [[C4C1Im][CF3SO3]]  BSA (Bos taurus, UniProt P02769)           0.946
2  CCn1cc[n+](C)c1.O=S(=O)([O-])C(F)(F)C(F)(F)C(F)(F)C(F)(F)F  BSA (Bos taurus, UniProt P02769)           1.028
3  C[N+](C)(C)CCO.O=S(=O)([O-])C(F)(F)C(F)(F)C(F)(F)C(F)(F)F [[N1112(OH)][C4F9SO3]]  BSA (Bos taurus, UniProt P02769)           1.064

Endpoint output: ΔHcal/ΔHvH of `OC[C@H]1O[C@@](CO)(O[C@H]2O[C@H](CO)[C@@H](O)[C@H](O)[C@H]2O)[C@@H](O)[C@@H]1O` . Value?
0.968

Continue with C[N+](C)(C)CCO.C[N+](C)(C)CCO.O=P([O-])(O)O.O=P([O-])(O)O [[N1112(OH)][H2PO4]]
0.949

* * *

Biological target: BSA (Bos taurus)
Construct: purchased Millipore Sigma-Aldrich
Experiment: DSC thermal unfolding of BSA in water and aqueous solutions of ABS phase-forming components
Type: physicochemical, bovine
Conditions: 1.0 mg/mL BSA, 1 mM component
endpoint: ΔS

> print(dat)
                                   compound  endpoint            result
1  OC[C@H]1O[C@@](CO)(O[C@H]2O[C@H](CO)[C@@H](O)[C@H](O)[C@H]2O)[C@@H](O)[C@@H]1O        ΔS  1.974 KJ/(mol.K)
2  C[N+](C)(C)CCO.C[N+](C)(C)CCO.O=P([O-])(O)O.O=P([O-])(O)O [[N1112(OH)][H2PO4]]        ΔS  1.325 KJ/(mol.K)
3  C[N+](C)(C)CCO.O=S(=O)([O-])C(F)(F)C(F)(F)C(F)(F)C(F)(F)F [[N1112(OH)][C4F9SO3]]        ΔS  1.629 KJ/(mol.K)

Tell me the measured ΔS of CCCCn1cc[n+](C)c1.O=S(=O)([O-])C(F)(F)F [[C4C1Im][CF3SO3]] , please.
1.210 KJ/(mol.K)

What would you report for `CCn1cc[n+](C)c1.O=S(=O)([O-])C(F)(F)C(F)(F)C(F)(F)C(F)(F)F` ?
1.700 KJ/(mol.K)

* * *

Collected Tm values appear next to each entry.
Biological target: BSA (Bos taurus)
Construct: purchased Millipore Sigma-Aldrich
Assay: DSC thermal unfolding of BSA in water and aqueous solutions of ABS phase-forming components
Format: physicochemical, bovine
Conditions: 1.0 mg/mL BSA, 0.1 mM component

Solved cases (3 shown):
> print(dat)
                                   compound    result
1  OC[C@H]1O[C@@](CO)(O[C@H]2O[C@H](CO)[C@@H](O)[C@H](O)[C@H]2O)[C@@H](O)[C@@H]1O  79.97 °C
2  C[N+](C)(C)CCO.C[N+](C)(C)CCO.O=P([O-])(O)O.O=P([O-])(O)O [[N1112(OH)][H2PO4]]  75.36 °C
3  C[N+](C)(C)CCO.O=S(=O)([O-])C(F)(F)C(F)(F)C(F)(F)C(F)(F)F [[N1112(OH)][C4F9SO3]]  79.77 °C

Notebook: pull reported Tm for BSA (Bos taurus), entry CCCCn1cc[n+](C)c1.O=S(=O)([O-])C(F)(F)F [[C4C1Im][CF3SO3]]
74.54 °C

What do we get for `CCn1cc[n+](C)c1.O=S(=O)([O-])C(F)(F)C(F)(F)C(F)(F)C(F)(F)F` ?
75.55 °C

Recorded values, source paper PMC10931833.
